Here, each record is paired with measured apparent KD of MS2 coat protein data.
System: MS2 coat protein
Test: apparent KD of MS2 coat protein; designed switch direction (-1 OFF switch, 1 ON switch): -1; higher = weaker reporter binding
Settings: input ligand: none

| SEQUENCE_STRING | apparent KD of MS2 coat protein |
| --- | --- |
| UUUUGCACGCUGCGGUCCUACAUGAGGAUCACCCAUGUGGUCUGGUGGCGUGGGUCGCCGGACUUGGCUCGUCUUGU [salish99_S_TOV1_R5_036] (Eterna round: R97, puzzle: Sensor, turn-off variant 1) | 19.1 nM |
| UACAUGAGGAUCACCCAUGUUUUGUCGUGUAUGGUAUUUAUCUAGGAUAUCAAUUUAUUUAAUUAUGAGAAGGAGAAUAUUAAU [JMF's solution 21] (Eterna round: R96, puzzle: Exclusion NG 3) | 34.7 nM |
| GGCACACAUGAGGAUCACCCAUGUGAGGAUAUGUGGCGAUCGUCGAUAGACGAUAGCCACAGAAGGCACAUGCC [Mat - Exclusion 1 - Eli Mod - D9] (Eterna round: R97, puzzle: Exclusion 1) | 17.8 nM |

Exercise: Entry GCCGAAUAAGUGAGGAUAUACCUAUGGAUACAUAGGUAGAAGGCACAUGAGGAUCACCCAUGUACCUCAACGGC [JL-BMX4-4.16 Eli mod] (Eterna round: R97, puzzle: Brourd's mod of Exclusion 4) has what apparent KD of MS2 coat protein?
Key: 14.8 nM
